The measurements presented in this section are drawn from paper PMC4557955.

Measured pKd of individual entries
- System: BPs gp33103 repressor (short, prophage-encoded form) (Mycobacteriophage BPs)
- EXPERIMENTAL DETAILS: EMSA
- RUN PARAMETERS: EMSA: 20 mM Tris pH 7.5, 10 mM EDTA, 25 mM NaCl, 10 mM spermidine, 1 mM DTT, 1 ug calf thymus DNA in 10 ul, room temperature 30 min, 5% native gel …
pKd is a log-scale quantity: -log10 of the concentration expressed in molar.

Illustrative cases are given below, each with its answer.
>  <SEQUENCE>
TCGGACATGGTGAACGCTTGCGACATATGTCGCCAATGTGTGCATCTTTGCA (double strand) [O55-L]

>  <pKd>
5.07

$$$$
>  <SEQUENCE>
GCATTTTCCAATAGACGACATATGTGCCTATGTTGGTGCACA (double strand) [O61-R]

>  <pKd>
4.71

$$$$
>  <SEQUENCE>
TCCAATAGACGACATATGTCGCT (double strand) [TIR-6]

>  <pKd>
5.02

$$$$
>  <SEQUENCE>
CAAACGCAAAAGTTCGGGCGTGGCGCATTTTCCAATAGAC (double strand) [TIR-5]

>  <pKd>
4.90

$$$$
>  <SEQUENCE>
CACACACGACGCTTGCACCGCGACATATGTCGGTTTTGCAGACGTGCAGGTT (double strand) [O6-L]

>  <pKd>
4.98

$$$$
>  <SEQUENCE>
GCATTTTCCAATAGACCGCATATGTCGCTATGTTGGTGCACA (double strand) [O27-L]

>  <pKd>
4.41

$$$$

Query sequence follows.
Input line: Entry under review: GCATCACGGACGCTGCTATCCGACATATGTCGTGGATGATCGGGATATGGCC (double strand) [O27-R] . Reported pKd?
Output line: 4.96
